The measurements presented in this section are drawn from patent US20250082754A1.

target: T1, human CD33 protein (human, UniProt P20138 18-259); test: SPR (BIACORE T200), antibody fragment captured by affinity tag, 100 nM human CD33 flowed over, estimate from one concentration; column KD; no unit printed on the sheet
T1 construct: extracellular domain; It is not tied to the protein used in the screen, so it is not used here; also called recombinant human CD33 protein; CD33 ECD proteins
T1 sequence (P20138 18-259): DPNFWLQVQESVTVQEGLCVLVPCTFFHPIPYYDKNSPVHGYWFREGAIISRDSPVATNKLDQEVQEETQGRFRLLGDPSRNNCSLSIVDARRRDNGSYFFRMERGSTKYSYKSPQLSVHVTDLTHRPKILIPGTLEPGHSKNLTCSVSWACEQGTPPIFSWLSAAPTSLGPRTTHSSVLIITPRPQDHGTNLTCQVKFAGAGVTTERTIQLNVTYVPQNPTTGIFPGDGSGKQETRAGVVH
# Lookup of reported log10(Kd) keyed by entry
Quantity Kind: log10(Kd) (log10 of the value in nM)

Binder | Quantity Kind | Measured Result
AS187809 (scFv, Format as for f1; also called anti-CD33 IgG1 AS187809; AS187809 scFv) scFv (VL-linker-VH): EIVMTQSPSSVTASAGEKVTINCKSSQSVLYSSNQKSYLAWYQQRPGQSPRLLIYYASTRESGVPDRFSGSGSTTDFTLTISSVQPEDAAVYYCQQGYSAPVTFGQGTKLELKGGGGSGGGGSGGGGSQVQLQESGGGLVQPGGSLRLSCAASGFTFSRYYMSWVRQAPGKGLEWVSSIYSDGSNTYYTDSVKGRFTISRDNAKNTVYLQMNSLKSEDTAQYYCATDRDCSGIHCGAFGYWGQGTQVTVSS | log10(Kd) | 0.03
AS141869 (scFv, The legend calls it anti-CD33 IgG1; also called anti-CD33 IgG1 AS141869; AS141869 scFv) scFv (VL-linker-VH): NFMLTQPSAVSVSLGETARITCQGGNVGTSYASWYQQKPGQAPVLVIYGNSNRPSGIPERFSGSKSGGTATLTISGAQAEDEADYYCQSADSRGYVAFGGGTHLTVLGGGGSGGGGSGGGGSQVQLQESGGGLVQPGGSLRLSCAASGFTFSSYDITWVRQAPGKGLEWVSAINSGGNSTYYADSVKGRFTISRDNAKNTLYLQMNSLKTEDTAVYYCATAIEREEDPLWVGPEYNYWGQGTQVTVSS | log10(Kd) | 1.06
AS142077 (scFv, Format as for f1; also called anti-CD33 IgG1 AS142077; AS142077 scFv) scFv (VL-linker-VH): SYELTQPSAMSVSLGETTRITCQGGNIESSYASWYQQKPGQAPALVIYEDSERPSRIPERFSGSSSGGTATLTISGAQAEDEADYYCQSADSSGYNPVFGGGTHLTVLGGGGSGGGGSGGGGSQVQLVESGGGLVQPGGSLRLSCAASGFTFSSYAMSWVRQAPGKGLEWVSGINSGGGSTYYADSVKGRFTISRDNAKNTLYLQLNSLKTEDTAMYYCAKHLLIIYSDYDVRGSEALDAWGQGTLVTVSS | log10(Kd) | -0.46
AS200728C (scFv, Format as for f1; also called anti-CD33 IgG1 AS200728C; AS200728C scFv) scFv (VL-linker-VH): QAVVTQLSSMSGSPGQTVTITCTGSSSNIGGGYYLSWYQQLPGTAPKLLIYNVNNRASGVPNRFSGSKTGSLASLTITGLQAEDEADYYCGSYDESLSYVFGGGTHLTVLGGGGSGGGGSGGGGSQVQLVESGGGLVQPGGSLRVSCAASGFTFKNYYMGWVRQAPGKGLEWISGINSGGEVTTYADSVKDRFTISRDNAKNTLYLQMNSLKPDDTALYYCAGGEGSSWYPDYYYGNGYWGEGTLITVSS | log10(Kd) | -0.62
AS142096 (scFv, Format as for f1; also called anti-CD33 IgG1 AS142096; AS142096 scFv) scFv (VL-linker-VH): NFMLTQPSAVSVSLGETARITCQGGKVGSNYASWYQQKPGQAPVLVIYGDDSRPSGIPERFSGSSSGGTATLTISGAQAEDEADYYCQSYDSSGYNAVFGGGTHLTVLGGGGSGGGGSGGGGSQVQLVESGGGLVQPGGSLRLSCAASGFTFFSYYMSWVRQAPGKGLEWVSSIYSDGSNTYYADSVKGRFTISRDNAKNTVYLQMNSLKSEDTALYYCATAGYYSDYVEFEYWGQGILVTVSS | log10(Kd) | -0.57
AS141974 (scFv, Format as for f1; also called anti-CD33 IgG1 AS141974; AS141974 scFv) scFv (VL-linker-VH): NFMLTQPAAVSVSLGETARITCQGGNFGSYYASWYQQKPGQAPVLVIYANSNRPSGIPERFSGSSSGGTATLTISGAQAEDEADYYCQSYDSSAAVFGGGTHLTVLGGGGSGGGGSGGGGSQVQLQESGGGLVQPGGSLRLSCAASGFTFSSYAMSWVRQAPGKGLEWVSAINSGGGSTYYADSVKGRFTISRDNAKNTLYLQLNSLKTEDTAMYYCAKEGGLYYSDYDELYFGYWGQGTQVTVSS | log10(Kd) | 0.25
AS141996 (scFv, Format as for f1; also called anti-CD33 IgG1 AS141996; AS141996 scFv) scFv (VL-linker-VH): SSELTQPSAVSVSLGETARITCQGGNVGSSYASWYQQKPGQAPVLVIYEDSERPSGIAERFSGSSSGGTATLTISGAQAEDEADYYCQSADNNGAVFGGGTHLTVLGGGGSGGGGSGGGGSEVQVVESGGGLVQPGGSLRLSCAGSGFTFSSYAMSWVRQAPGKGLEWVSTINSGGGSTYYADSVKGRFTISRDNAKNTLYLQLNSLKTEDTAMYYCANHLLIIYSDYDVRGSEAWETWGQGTLVTVSS | log10(Kd) | -1.20
AS199911 (scFv, Format as for f1; also called anti-CD33 IgG1 AS199911; AS199911 scFv) scFv (VL-linker-VH): SYELTQPSALSVTLGQSAKITCQGDNFETTYVHWYQQKPGQAPVLVIYNDDSRPSGIPERFSGSNSGDRATLTISGAQAEDEGDYYCQSADTSGNAYVFGGGTHLTVLGGGGSGGGGSGGGGSAVQLVESGGGLVQPGGSLRLSCAASGFTFSRSDMSWVRQAPGKGLEWVSYINSGGGTNRYADSVKARFTIFRDNAKNTLYLQMNTLKPEDTAVYYCAKSGFDSDWIFGYLERWGQGTLVTVSS | log10(Kd) | -0.46
AS141837 (scFv, Format as for f1; also called anti-CD33 IgG1 AS141837; AS141837 scFv) scFv (VL-linker-VH): SSELTQPSAVSVSLGETARITCQGVNVGSYYASWYQQKPGQAPVLVIYGNSNRPSGIPERFSGSKSGGTATLTISGAQAEDEADYYCQSADSSAFNAVFGGGTHLTVLGGGGSGGGGSGGGGSQVQLVQSGGGLVQPGGSLRLSCAASGFTFSSYDMTWVRQAPGKGLEWVSAVNSGGGTTYYADSVKGRFTISRDNAKNTLYLQMNSLKTEDTAVYYCATAIEREEDPLWVGPEYNTWGQGTQVTVSS | log10(Kd) | 1.33
AS199772 (scFv, Format as for f1; also called anti-CD33 IgG1 AS199772; AS199772 scFv) scFv (VL-linker-VH): SYELTQSPSVSVALRQAAKITCRGDNIETKYAYWYQQKPGQSPLLVIYKDDNRPSGIPERFSGSNSGNMATLTISGAQAEDEADYYCQVWDSSANWVFGGGTHLTVLGGGGSGGGGSGGGGSQVQLQESGGGLVQPGGSLRLSCAASGFTFSSYWMYWVRQAPGKGLEWVSAMNTGGGSTYYGDSVKGRFTVSRDNAKNTLALQMNSLKPEDTALYYCARSWGGMYSGGYYEYSGMDYWGKGTLVTVSS | log10(Kd) | -1.17
